target: EGFR wild type (EGFR WT) (Homo sapiens (Human), UniProt P00533); assay: Cellular Phosphorylation Assay, Assay 5 (EGF-stimulated EGFR phosphorylation, NIH 3T3 cells); format: cell-based; details: cellular EGFR WT phosphorylation, EGF-stimulated
Sequence (P00533 25-1210): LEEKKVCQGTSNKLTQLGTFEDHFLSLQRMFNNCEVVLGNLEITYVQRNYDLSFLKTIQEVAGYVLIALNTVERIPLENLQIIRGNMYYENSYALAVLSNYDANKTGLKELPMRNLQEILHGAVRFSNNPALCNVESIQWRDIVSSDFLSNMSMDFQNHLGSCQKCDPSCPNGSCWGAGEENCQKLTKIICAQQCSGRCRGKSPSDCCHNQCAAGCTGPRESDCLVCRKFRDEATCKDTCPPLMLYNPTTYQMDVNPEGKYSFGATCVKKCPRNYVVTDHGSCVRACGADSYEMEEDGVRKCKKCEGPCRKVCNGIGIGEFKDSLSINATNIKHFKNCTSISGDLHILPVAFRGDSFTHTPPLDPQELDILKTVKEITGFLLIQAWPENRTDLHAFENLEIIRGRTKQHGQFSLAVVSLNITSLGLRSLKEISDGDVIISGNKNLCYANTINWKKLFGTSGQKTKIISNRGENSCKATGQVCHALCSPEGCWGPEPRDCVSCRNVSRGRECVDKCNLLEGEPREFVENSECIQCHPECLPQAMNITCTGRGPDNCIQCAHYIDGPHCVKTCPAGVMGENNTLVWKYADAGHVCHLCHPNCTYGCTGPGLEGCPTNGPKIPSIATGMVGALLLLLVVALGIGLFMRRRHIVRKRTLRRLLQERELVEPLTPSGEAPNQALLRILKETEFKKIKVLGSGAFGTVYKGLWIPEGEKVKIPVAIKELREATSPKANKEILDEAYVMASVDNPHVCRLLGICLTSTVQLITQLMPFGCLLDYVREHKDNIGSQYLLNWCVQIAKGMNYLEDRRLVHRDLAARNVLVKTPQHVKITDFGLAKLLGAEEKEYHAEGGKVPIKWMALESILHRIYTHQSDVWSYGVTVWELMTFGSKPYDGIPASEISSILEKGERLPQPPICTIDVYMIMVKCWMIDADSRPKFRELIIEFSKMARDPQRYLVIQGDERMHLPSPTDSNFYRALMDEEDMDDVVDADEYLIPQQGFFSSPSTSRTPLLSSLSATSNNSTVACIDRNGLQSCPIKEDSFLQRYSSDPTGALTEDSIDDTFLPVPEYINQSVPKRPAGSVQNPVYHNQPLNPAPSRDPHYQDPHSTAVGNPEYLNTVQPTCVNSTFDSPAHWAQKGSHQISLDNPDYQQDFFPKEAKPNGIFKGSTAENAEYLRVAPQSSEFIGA
Exam item: assign criterion met to entries whose IC50 is below 2000 nM and criterion not met to entries at or above 2000 nM. Note that a value of exactly 2000 nM receives criterion not met.

{"compound": "C=CC(=O)N1CCCC(c2ccc3ncnc(Nc4ccc(Oc5cnc6c(c5)ncn6C)c(C)c4F)c3n2)CC1 (stereo not drawn)", "label.class": "criterion not met"}
{"compound": "C=CC(=O)N1CC2(C1)CN(c1ccc3ncnc(Nc4cc(Cl)c(Oc5ccn6ncnc6c5)cc4F)c3n1)C2", "label.class": "criterion not met"}
{"compound": "C=CC(=O)N1C[C@@H]2CC[C@H]1CN2c1ccc2ncnc(Nc3ccc(Oc4cnc5c(c4)ncn5C)c(C)c3F)c2n1", "label.class": "criterion met"}
{"compound": "C=CC(=O)N1C2CCC1CN(c1ccc3ncnc(Nc4ccc(Oc5ccn6ncnc6c5)c(C)c4F)c3n1)C2", "label.class": "criterion met"}
{"compound": "C=CC(=O)N1C[C@@H]2CC[C@H]1CN2c1ccc2ncnc(Nc3ccc(Oc4ccn5ncnc5c4)c(C)c3F)c2n1", "label.class": "criterion met"}
{"compound": "C=CC(=O)N1CCCN(c2ccc3ncnc(Nc4cc(C)c(Oc5ccn6ncnc6c5)cc4F)c3n2)CC1(C)C", "label.class": "criterion not met"}
{"compound": "C=CC(=O)N1[C@@H](C)CN(c2ccc3ncnc(Nc4cc(Cl)c(Oc5ccc6c(c5)ncn6C)cc4F)c3n2)C[C@@H]1C", "label.class": "criterion not met"}
{"compound": "C=CC(=O)N1CCN(c2ccc3ncnc(Nc4ccc(Oc5ccn6ncnc6c5)c(Cl)c4F)c3n2)C[C@H]1C(C)C", "label.class": "criterion met"}
{"compound": "C=CC(=O)N1C[C@@H]2CC[C@H]1CN2c1ccc2ncnc(Nc3cc(C)c(Oc4cnc5c(c4)ncn5C)cc3F)c2n1", "label.class": "criterion met"}
{"compound": "C=CC(=O)N1[C@H](C)CN(c2ccc3ncnc(Nc4ccc(Oc5ccn6ncnc6c5)c(Cl)c4F)c3n2)C[C@@H]1C", "label.class": "criterion met"}
{"compound": "CCC(=O)N1CC([C@H](C)c2ccc3ncnc(Nc4ccc(Oc5ccn6ncnc6c5)c(C)c4F)c3n2)C1 (racemic)", "label.class": "criterion not met"}
{"compound": "C=CC(=O)N1CC[C@@H]2C[C@H]1CN2c1ccc2ncnc(Nc3cc(Cl)c(Oc4cnc5c(c4)ncn5C)cc3F)c2n1", "label.class": "criterion not met"}
{"compound": "C=CC(=O)N1C[C@@H]2C[C@H](c3ccc4ncnc(Nc5cc(C)c(Oc6ccc7c(c6)ncn7C)cc5F)c4n3)C[C@H]1C2", "label.class": "criterion met"}
{"compound": "C=CC(=O)N1CC2CC(C1)N2c1ccc2ncnc(Nc3cc(C)c(Oc4ccn5ncnc5c4)cc3F)c2n1", "label.class": "criterion not met"}
{"compound": "C=CC(=O)N1CCN(c2ccc3ncnc(Nc4ccc(Oc5ccn6ncnc6c5)c(C)c4F)c3n2)C[C@H]1C1CC1", "label.class": "criterion met"}
{"compound": "C=CC(=O)N1CCN(c2ccc3ncnc(Nc4ccc(Oc5cnc6c(c5)ncn6C)c(C)c4F)c3n2)C[C@@H]1C", "label.class": "criterion not met"}
{"compound": "C=CC(=O)N1CC[C@H](c2ccc3ncnc(Nc4ccc(Oc5cc(F)c6c(c5)ncn6C)c(C)c4)c3n2)CC1(C)C (racemic)", "label.class": "criterion not met"}
{"compound": "C=CC(=O)N(C)[C@H]1CCN(c2ccc3ncnc(Nc4cc(C)c(Oc5ccn6ncnc6c5)cc4F)c3n2)C1", "label.class": "criterion not met"}
{"compound": "C=CC(=O)N1CCN(c2ccc3ncnc(Nc4ccc(Oc5ccn6ncnc6c5)c(C)c4F)c3n2)C[C@@H]1C(C)(C)C", "label.class": "criterion not met"}
{"compound": "C=CC(=O)N1C[C@H]2CC[C@@H]1C[C@H]2c1ccc2ncnc(Nc3cc(C)c(Oc4ccn5ncnc5c4)cc3F)c2n1", "label.class": "criterion not met"}
{"compound": "C=CC(=O)N1C[C@H]2CC[C@@H]1CN2c1ccc2ncnc(Nc3ccc(Oc4ccn5ncnc5c4)c(Cl)c3F)c2n1", "label.class": "criterion met"}
{"compound": "C=CC(=O)N1CCN(c2ccc3ncnc(Nc4cc(C)c(Oc5cnc6c(c5)ncn6C)cc4F)c3n2)C[C@@H]1C1CC1", "label.class": "criterion not met"}
{"compound": "C=CC(=O)N1C[C@H]2CC[C@@H]1[C@@H](c1ccc3ncnc(Nc4cc(C)c(Oc5ccn6ncnc6c5)cc4F)c3n1)C2", "label.class": "criterion not met"}
{"compound": "C=CC(=O)N1C[C@H]2CC[C@@H]1C[C@@H]2c1ccc2ncnc(Nc3ccc(Oc4cnc5c(c4)ncn5C)c(C)c3F)c2n1", "label.class": "criterion not met"}
{"compound": "C=CC(=O)N1C[C@@H]2CC[C@H]1CN2c1ccc2ncnc(Nc3cc(C)c(Oc4ccn5ncnc5c4)cc3F)c2n1", "label.class": "criterion met"}
{"compound": "C=CC(=O)N1C[C@@H]2CC[C@H]1CN(c1ccc3ncnc(Nc4ccc(Oc5ccn6ncnc6c5)c(C)c4F)c3n1)C2 (racemic)", "label.class": "criterion not met"}
{"compound": "C=CC(=O)N1C2CCC1CN(c1ccc3ncnc(Nc4ccc(Oc5ccc6c(c5)ncn6C)c(C)c4F)c3n1)C2", "label.class": "criterion met"}

Sourced from patent US12447153B2
